Reference source: the Immune Epitope Database (IEDB)

Target system: HLA-A*03:01
Test method notes: IEDB peptide-MHC binding, purified MHC/competitive/radioactivity; filed as Kd, often an IC50 or EC50 that approximates it; bounds were set here for any values at or beyond the usual limits of such assays
Assay context: source organism: Vaccinia virus WR
Measurement kind: Kd

TMKAIEKDR ... ≥ 25.9 µM
NMKPNFWSR ... ≥ 78 µM
NAILHNIYR ... ≥ 36.1 µM
GTDDEVIER ... ≥ 63.5 µM
DLIAMENLK ... ≥ 33.5 µM
TSLAIKNYYR ... 0.118 µM

Record request: Kd value, item "AISSRVDRY"
5.01 µM

Thanks! And "YIWIKNLETY" ?
1.46 µM
